Hello, the source for this data is PubChem BioAssay (EPA / NIEHS), in case you need it.

read-out: Monocyte Chemoattractant Protein-1 (MCP1), CCL2 (gene 6347); test: BSK_3C_MCP1: BioMAP Diversity Plus: 3C Assay for Monocyte Chemoattractant Protein-1 (MCP1) Biomarker Activity (AID 2283017); details: primary human endothelial cells (HUVEC); actives raise or lower the signal
Activity calls are given as the source filed them. Rule for the calls: active = hit-call score of the fitted dose curve at least 0.9, where 1 is the maximum; inactive = score below 0.9.
Thanks in advance; please answer with one of these: 1 for active, -1 for inactive

Ask: What is the recorded call for this compound in the test? COCC(C)OCC(C)O (configuration not stated)
Reply: -1

Ask: How was `CCN(CC)CCNc1ccc(CNC=O)c2sc3ccc(OC)cc3c(=O)c12` classified in this test?
Reply: 1

Ask: // outcome(item) with item = `c1ccc2c(c1)ccc1ccccc12`
Reply: -1

Continuing:
Ask: State the result this test recorded for `Oc1cccc(O)c1` .
Reply: -1

Ask: Call for entry `CC[C@H](c1ccc(O)cc1)[C@@H](CC)c1ccc(O)cc1` :
Reply: 1

----------
# AC50 annotations
read-out: TIMP metallopeptidase inhibitor 2 (TIMP2), TIMP2 (gene 7077); assay: BSK_KF3CT_TIMP2: BioMAP Diversity Plus: KF3CT Assay for TIMP metallopeptidase inhibitor 2 (TIMP2) Biomarker Activity (AID 2283071); conditions: primary human keratinocytes with fibroblasts; actives raise or lower the signal
Active and inactive are the calls of the source. The calls were made as follows: active = hit-call score of the fitted dose curve at least 0.9, where 1 is the maximum; inactive = score below 0.9.

Example results:
Ask: Please report the recorded AC50 for `Cc1oc(-c2ccccc2)nc1CCOc1ccc(C[C@H](Nc2ccccc2C(=O)c2ccccc2)C(=O)O)cc1` .
Reply: 9.85 µM (active)

Ask: Query (compound): `CCN(CC)CCNc1ccc(CNC=O)c2sc3ccc(OC)cc3c(=O)c12` ; field requested: AC50
Reply: 25 µM (active)

Attention now turns to another entry.
Ask: Query (compound): `CCCCCCCCCCCCCC[N+](C)(C)C` ; field requested: AC50
Reply: 5.45 µM (active)

----------
assay: ATG_GLI_CIS: Attagene CIS-FACTORIAL HepG2 Assay for human Zinc Finger Protein GLI1 (AID 2282945); settings: HepG2, Attagene cis-factorial reporter mRNA, GLI element; actives raise or lower the signal
Calls of active or inactive are those of the source. The calls were made as follows: active = hit-call score of the fitted dose curve at least 0.9, where 1 is the maximum; inactive = score below 0.9.
Answer with one of the outcomes given here: true (active), false (inactive)

Solved cases below.
Ask: I'd appreciate the recorded outcome for `CC(=O)NC1(c2cccc(F)c2)CCN(CC[C@@]2(c3ccc(Cl)c(Cl)c3)CN(c3ccccc3)C(=O)CO2)CC1` from this test.
Reply: true

Ask: Just curious, what result did `CCCCCCCC(=O)O` get here?
Reply: false

Ask: Could you check what this test reported for `Cc1cc(CCN2CCN(c3nsc4ccccc34)CC2)cc2c1NC(=O)CC2(C)C` ?
Reply: false

Ask: Test call for this molecule, please: `C=C(C)C(=O)OCCC(F)(F)C(F)(F)C(F)(F)C(F)(F)C(F)(F)C(F)(F)F`
Reply: false

Ask: Please state the recorded outcome for this molecule: `C[C@@H]1C[C@H]2[C@@H]3CCC4=CC(=O)C=C[C@]4(C)[C@@]3(F)[C@@H](O)C[C@]2(C)[C@@]1(O)C(=O)COP(=O)(O)O`
Reply: false

New cases:
Ask: Per the records of this test, what outcome belongs to `CC(=O)CC(C)(C)O` ?
Reply: false

Ask: Check the results log: what was the call for `CN1CCN(c2ccccc2/C=C2\SCCN(c3ccc(Cl)c(Cl)c3)C2=O)CC1` ?
Reply: false

Ask: Could you please tell me the result logged for `O=C(O)c1ccccc1C(c1ccc(O)cc1)c1ccc(O)cc1` in this assay?
Reply: false

Ask: What call does the record list for `CCCOC(=O)c1ccc(O)cc1` ?
Reply: false

Ask: Recorded call for `C#C[C@]1(O)CC[C@H]2[C@@H]3CCC4=CC(=O)CC[C@@H]4[C@H]3CC[C@@]21C` ?
Reply: false

----------
read-out: Signal transducer and activator of transcription 3 (Homo sapiens) (UniProt P40763); experiment: LTEA_HepaRG_STAT3: Life Technologies and Expression Analysis (LTEA) Assay for Signal transducer and activator of transcription (STAT3) using HepaRG (AID 2283529); details: mRNA level, 48 h; actives raise or lower the signal
Sequence (P40763 whole entry, looked up): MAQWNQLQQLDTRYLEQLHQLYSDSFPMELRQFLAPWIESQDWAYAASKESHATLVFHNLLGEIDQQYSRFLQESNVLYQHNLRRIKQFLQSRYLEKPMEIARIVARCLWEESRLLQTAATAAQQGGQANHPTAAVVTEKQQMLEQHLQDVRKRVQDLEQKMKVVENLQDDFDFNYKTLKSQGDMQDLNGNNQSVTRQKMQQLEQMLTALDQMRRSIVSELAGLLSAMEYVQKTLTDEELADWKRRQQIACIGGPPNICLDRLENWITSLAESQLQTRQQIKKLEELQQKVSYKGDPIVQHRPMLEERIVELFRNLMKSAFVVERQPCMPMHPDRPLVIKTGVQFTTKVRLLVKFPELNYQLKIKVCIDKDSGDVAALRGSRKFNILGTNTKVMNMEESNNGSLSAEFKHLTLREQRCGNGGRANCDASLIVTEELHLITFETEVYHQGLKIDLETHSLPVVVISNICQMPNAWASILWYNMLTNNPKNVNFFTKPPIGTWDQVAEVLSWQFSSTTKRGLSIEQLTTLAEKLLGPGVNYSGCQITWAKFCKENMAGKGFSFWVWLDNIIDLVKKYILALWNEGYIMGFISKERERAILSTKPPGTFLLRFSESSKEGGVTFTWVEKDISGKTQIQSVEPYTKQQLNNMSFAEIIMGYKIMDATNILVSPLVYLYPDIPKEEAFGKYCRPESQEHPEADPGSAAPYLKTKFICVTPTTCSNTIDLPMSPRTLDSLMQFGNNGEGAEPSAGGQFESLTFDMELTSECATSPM
Activity calls are given as the source filed them. Rule for the calls: active = hit-call score of the fitted dose curve at least 0.9, where 1 is the maximum; inactive = score below 0.9.
quantityKind: AC50

Ask: Item `CC[C@H](c1ccc(O)cc1)[C@@H](CC)c1ccc(O)cc1` has what recorded AC50?
Reply: 93.8 µM (active)

Ask: # get_value(readout='AC50', item= CCc1ccc(CCOc2ccc(CC3SC(=O)NC3=O)cc2)nc1 (stereo not drawn) )
Reply: inactive

Ask: # query: AC50 of entry `O=C(OCCOCCOC(=O)c1ccccc1)c1ccccc1`
Reply: inactive

----------
read-out: Tissue Factor, F3 (gene 2152); assay: BSK_LPS_TissueFactor: BioMAP Diversity Plus: LPS Assay for Tissue Factor Biomarker Activity (AID 2283084); details: primary human HUVEC with PBMC; actives raise or lower the signal
Calls of active or inactive are those of the source. Rule for the calls: active = hit-call score of the fitted dose curve at least 0.9, where 1 is the maximum; inactive = score below 0.9.
One label from this list, please: TRUE = active, FALSE = inactive

Take a look at these entries with their results.
Ask: Dear all, I need the recorded test outcome for `O=C(O)Cc1cc(I)c(Oc2cc(I)c(O)c(I)c2)c(I)c1` , thank you.
Reply: FALSE

Ask: What is the recorded call for this molecule in the test? `CC#C[C@]1(O)CC[C@H]2[C@@H]3CCC4=CC(=O)CCC4=C3[C@@H](c3ccc(N(C)C)cc3)C[C@@]21C`
Reply: FALSE

Ask: // param item: `CCCOc1sc(C(=O)N2CCC(c3cc(CN)ccc3F)CC2)c(C)c1Br` ; yields the recorded call
Reply: TRUE

Ask: Please share the test call associated with `Oc1cccc(O)c1` .
Reply: FALSE

Ask: Dear all, I need the recorded test outcome for `CC(C)CCCCCCOC(=O)CCCCC(=O)OCCCCCCC(C)C` , thank you.
Reply: FALSE

New cases:
Ask: Which outcome was entered for the molecule `CCOC(=O)CC(O)(CC(=O)OCC)C(=O)OCC` in this test?
Reply: FALSE

Ask: Hi, do you know how `ClC1=C(Cl)C(Cl)(Cl)C(Cl)=C1Cl` came out in this test?
Reply: TRUE

Ask: Please state the recorded outcome for this molecule: NC(=O)N1C(=O)C(C(=O)c2cc(Cl)cs2)c2cc(F)c(Cl)cc21 (configuration not stated)
Reply: TRUE

Ask: Record lookup: outcome of this test for `CN1CCN(c2ccccc2/C=C2\SCCN(c3ccc(Cl)c(Cl)c3)C2=O)CC1` ?
Reply: FALSE

Ask: Would you mind telling me which call this test gave `CC(=O)CC(C)(C)O` ?
Reply: FALSE

Ask: Returns: the outcome recorded for COCC(C)O (configuration not stated) in this assay.
Reply: FALSE

Ask: Can you look up the reported call for CCCCC(CC)COC(=O)CCCCC(=O)OCc1ccccc1 (configuration not stated) for me?
Reply: FALSE

----------
read-out: Insulin-like growth factor-binding protein 1 (IGFBP1), IGFBP1 (gene 3484); assay: LTEA_HepaRG_IGFBP1: Life Technologies and Expression Analysis (LTEA) Assay for Insulin-like growth factor-binding protein 1 (IGFBP1) using HepaRG (AID 2283508); conditions: mRNA level, 48 h; actives raise or lower the signal
Activity calls are given as the source filed them. Rule for the calls: active = hit-call score of the fitted dose curve at least 0.9, where 1 is the maximum; inactive = score below 0.9.
quantityKind: outcome

Ask: What measured outcome goes with `CCCCCCC(=O)O` ?
Reply: inactive

Ask: Any idea what its outcome is? The compound is `O=[N+]([O-])c1ccc(O)cc1`
Reply: inactive

Ask: Can you look up the measured outcome of `c1ccc2c(c1)Cc1ccccc1-2` for me?
Reply: inactive

----------
experiment: APR_HepG2_MitoMass_72hr: Apredica 72-hour HepG2 Assay for Mitochondrial Mass (AID 2282924); settings: high-content imaging, actives raise or lower the signal;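 note: MitoTracker Red CMXRos stain intensity per cell imaged as mitochondrial mass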
Activity calls are given as the source filed them. Rule for the calls: active = hit-call score of the fitted dose curve at least 0.9, where 1 is the maximum; inactive = score below 0.9.
quantityKind: AC50

Ask: AC50 for NC(=O)N1C(=O)C(C(=O)c2cc(Cl)cs2)c2cc(F)c(Cl)cc21 (configuration not stated) ?
Reply: 54.4 µM (active)

Ask: Give the measured AC50 of `CN1CCN(c2ccccc2/C=C2\SCCN(c3ccc(Cl)c(Cl)c3)C2=O)CC1` .
Reply: 109 µM (active)

Ask: Name the recorded AC50 for `O=c1c(-c2ccc(O)cc2)coc2cc(O)ccc12` .
Reply: inactive

Ask: // AC50 lookup, key: CCC(C)(C)C1CCC(O)CC1 (configuration not stated)
Reply: inactive

More entries:
Ask: So what's the measured AC50 for this one? `CCCCCCCCCCCCc1ccccc1S(=O)(=O)O`
Reply: 120 µM (active)

Ask: # input molecule: N#C[C@@H]1CC(F)(F)CN1C(=O)CNC1CC2CCC(C1)N2c1ncccn1 (some centres not stated) ; wanted: its AC50
Reply: inactive

----------
read-out: TIMP metallopeptidase inhibitor 2 (TIMP2), TIMP2 (gene 7077); test: BSK_KF3CT_TIMP2: BioMAP Diversity Plus: KF3CT Assay for TIMP metallopeptidase inhibitor 2 (TIMP2) Biomarker Activity (AID 2283071); details: primary human keratinocytes with fibroblasts; actives raise or lower the signal
The source made the active and inactive calls. Rule for the calls: active = hit-call score of the fitted dose curve at least 0.9, where 1 is the maximum; inactive = score below 0.9.
API: response.call in true (active), false (inactive)

Ask: What did the test return for COCC(C)O (centres undefined) ?
Reply: false

Ask: What did the test return for `CCCOC(=O)c1ccc(O)cc1` ?
Reply: false

Ask: Tell me the recorded outcome of this test for `CCCCCCCCC(=O)O` .
Reply: false

Ask: Status in this test for `CC(C)(C)CC(C)(C)c1ccc(O)c(-n2nc3ccccc3n2)c1` ?
Reply: false

Next:
Ask: Could you kindly confirm the outcome this assay logged for `CCCCCCC(=O)O` ?
Reply: false

Ask: Short answer needed: outcome of this test for `c1ccc2c(c1)Cc1ccccc1-2` ?
Reply: false

Ask: Per the records of this test, what outcome belongs to `COc1ccc([N+](=O)[O-])cc1N` ?
Reply: false

Ask: Outcome logged for `O=[N+]([O-])c1ccc(O)cc1` in this assay:
Reply: false

Ask: For this molecule, state the assay outcome: N#C[C@@H]1CC(F)(F)CN1C(=O)CNC1CC2CCC(C1)N2c1ncccn1 (some centres undefined)
Reply: false
